# TARGET ENTITY: Tubulin
# PROTOCOL TEXT: Inhibition of tubulin polymerization (unknown origin)
MEASURED ATTRIBUTE: IC50 (µM)
Write the value in µM as a bare number.

Qu. Give reported IC50 value for `O=C1NCCc2ccccc2-c2c1[nH]c1ccccc21`
Ans. 7.7

====

# Tested on: THP-1
# PROTOCOL TEXT: Antiinflammatory activity in human THP-1 cells assessed as inhibition of LPS-stimulated IL2 production
# Format: functional, cell-based
Here, each record is paired with measured pIC50 data.
Scale for pIC50: -log10 of concentration given in mol/L; no unit attached.

- COMPOUND: "NC1=NC(=O)/C(=C2\\CCNC(=O)c3[nH]c4ccccc4c32)N1"
  pIC50: 5.46

Could you now consider this next compound?
Qu. Retrieve pIC50 on THP-1; query NC1=NC(=O)/C(=C2\CCNC(=O)c3[nH]c(Br)cc32)N1 [HYMENIALDISINE]
Ans. 5.62

Hey, just so you know, these numbers are from ChEMBL document CHEMBL5226304.
